# measurement-target: T1, Human hepcidin peptide (hepcidin-25) (human)
# T1 construct: Synthetic 25 aa peptide; also called hep-25; Hep-25
# T1 peptide: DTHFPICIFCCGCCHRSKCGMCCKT
# protocol-text: titration affinity ELISA, hepcidin 100 ng/well on Nunc Immobilizer Amino plate, CHO supernatant; antibody 25 ng/ml
reported-metric: OD 450 nm (OD450)
// note: answer is a bare numeric in OD450

// worked examples, OD 450 nm included
binder | OD 450 nm / OD450
BAP070-01 (human-mouse chimeric MAb 583) (antibody, human IgG1, kappa, V domains shown, used as CHO cell supernatant; also called BAP070-1) VH: QIQLVQSGPELKKPGETVKISCKASGYTFTNYGMNWVKQAPGKGLKWMGWINTYTGEPTYADDFKGRFAFSLETSASTAYLQINNLKNEDTATYFCTTYATSWYWGQGTLVTVSS VL: DIVLTQSPASLAVSLGQRATISCRASESVDSYGNSFMHWYQQKPGQPPKLLIYRASNLESGIPARFSGSGSRTDFTLTINPVEADDVATYYCQQSNEDLTFGQGTKVEIKR | 2.57
BAP070-hum04 (antibody, V domains shown, Expressed as soluble IgG1 in CHO cells, tested as supernatant; The entries stop inside FR4) VH: QVQLVQSGAEVKKPGASVKVSCKASGYTFTNYGMNWVRQARGQRLEWIGWINTYTGEPTYADDFKGRLTISKDTSKNQVVLTMTNMDPVDTATYYCTTYATSWYWGQG VL: AIQLTQSPSSLSASVGDRVTITCRASESVDSYGNSFMHWFQQRPGQSPRRLIYRASNLESGIPPRFSGSGYGTDFTLTINNIESEDAAYYFCQQSNEDLTFG | 2.81
BAP070-hum06 (antibody, IgG1, V domains shown, Expressed as soluble IgG1 in CHO cells, tested as supernatant; The entries stop inside FR4) VH: EVQLVQSGAEVKKPGESLRISCKGSGYTFTNYGMNWIRQPPGKGLEWIGWINTYTGEPTYADDFKGRVTISADKSISTAYLQWSSLKASDTAMYYCTTYATSWYWGQG VL: AIQLTQSPSSLSASVGDRVTITCRASESVDSYGNSFMHWYQQKPGQAPRLLIYRASNLESGVPSRFSGSGSGTDFTFTISSLQPEDIATYYCQQSNEDLTFG | 2.69

Exercise: Quick check: OD 450 nm of BAP070-hum01 (antibody, IgG1, V domains shown, Expressed as soluble IgG1 in CHO cells, tested as supernatant; The entries stop inside FR4 (...WGQG / ...FG); also called humanized hit 1) VH: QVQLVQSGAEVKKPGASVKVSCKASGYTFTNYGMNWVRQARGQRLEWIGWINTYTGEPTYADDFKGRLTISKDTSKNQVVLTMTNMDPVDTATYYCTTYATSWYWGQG VL: DIQMTQSPSSLSASVGDRVTITCRASESVDSYGNSFMHWYQQKPGQAPRLLIYRASNLESGVPSRFSGSGSGTDFTFTISSLQPEDIATYYCQQSNEDLTFG ?
Solution: 2.83

Exercise: Likewise for BAP070-hum05 (antibody, IgG1, V domains shown, Expressed as soluble IgG1 in CHO cells, tested as supernatant; The entries stop inside FR4) VH: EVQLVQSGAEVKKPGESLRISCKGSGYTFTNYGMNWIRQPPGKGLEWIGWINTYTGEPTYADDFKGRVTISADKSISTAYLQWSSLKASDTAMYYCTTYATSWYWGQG VL: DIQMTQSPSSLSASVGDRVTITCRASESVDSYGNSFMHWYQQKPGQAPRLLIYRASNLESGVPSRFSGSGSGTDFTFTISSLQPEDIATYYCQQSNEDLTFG ?
Solution: 2.63

Cited source for all entries: patent US20170247448A1
